System: Tyrosine-protein kinase ABL1 (Homo sapiens), P00519 [M351T]
Conditions: at 0.1 µM
measuredMetric: inhibition (%)
Quick note: give the figure in %, leave out the unit.

Example entries and their recorded answers appear below.
1) CS(=O)(=O)CCNCc1coc(-c2ccc3ncnc(Nc4ccc(OCc5ccccc5)cc4)c3c2)c1 = 1.21
2) N#Cc1c(NC(=O)CN2CCOCC2)sc2c1CCCC2 = 1.25

Qu. Given Clc1ccc(-c2nn3ncccc3c2-c2ccnc(Nc3ccccc3)n2)cc1 , state its recorded inhibition.
Ans. 10.4

Qu. Also CCn1c(-c2nonc2N)nc2c(C#CC(C)(C)O)ncc(OC3CCNCC3)c21 ?
Ans. -0.57

Qu. Also NS(=O)(=O)c1ccc(Nc2ncc(-c3ccccc3)o2)cc1 ?
Ans. 3.46

* * *

Biological target: Tyrosine-protein kinase receptor TYRO3 (Homo sapiens) (UniProt Q06418);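 further: reported percentages are averaged inhibition values of TYRO3 kinase activity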
Sequence (whole entry): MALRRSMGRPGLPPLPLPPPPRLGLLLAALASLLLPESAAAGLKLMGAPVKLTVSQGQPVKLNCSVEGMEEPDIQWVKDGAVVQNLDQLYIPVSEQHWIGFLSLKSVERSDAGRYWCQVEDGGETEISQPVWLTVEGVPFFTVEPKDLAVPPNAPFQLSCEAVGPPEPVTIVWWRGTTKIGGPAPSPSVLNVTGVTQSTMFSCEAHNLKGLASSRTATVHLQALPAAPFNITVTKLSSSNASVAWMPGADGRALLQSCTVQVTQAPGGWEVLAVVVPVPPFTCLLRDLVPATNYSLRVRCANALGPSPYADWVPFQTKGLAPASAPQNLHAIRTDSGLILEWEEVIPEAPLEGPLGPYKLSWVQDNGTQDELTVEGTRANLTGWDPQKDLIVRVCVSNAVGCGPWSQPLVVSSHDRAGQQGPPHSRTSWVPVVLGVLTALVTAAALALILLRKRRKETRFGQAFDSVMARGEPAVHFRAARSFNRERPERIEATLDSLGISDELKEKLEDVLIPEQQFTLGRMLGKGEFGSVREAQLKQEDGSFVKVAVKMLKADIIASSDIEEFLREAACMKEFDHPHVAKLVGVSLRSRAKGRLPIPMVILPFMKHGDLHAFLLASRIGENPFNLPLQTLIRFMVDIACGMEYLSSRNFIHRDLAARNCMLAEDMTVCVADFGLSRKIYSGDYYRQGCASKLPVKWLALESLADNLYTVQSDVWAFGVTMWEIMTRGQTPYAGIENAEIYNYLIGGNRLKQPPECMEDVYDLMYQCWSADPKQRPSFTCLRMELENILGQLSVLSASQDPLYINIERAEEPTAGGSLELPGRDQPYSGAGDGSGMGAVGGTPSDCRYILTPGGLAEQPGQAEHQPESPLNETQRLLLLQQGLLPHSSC
Conditions: at 0.1 µM
measuredMetric: inhibition (%)
Quick note: give the figure in %, leave out the unit.

Example entries and their recorded answers appear below.
1) CNC(=O)c1cc(-c2ccc(F)cc2)cc(-c2ccc(S(=O)(=O)N3CCCC3)cc2)c1N = 1.59
2) COc1ccc(-c2oc3ncnc(N)c3c2-c2ccc(NC(=O)Nc3cc(C(F)(F)F)ccc3F)cc2)cc1 = 8.25

// next entry
Qu. Given CCN(CC)S(=O)(=O)c1ccc(OC)c(Nc2ncc(-c3ccccc3)o2)c1 , state its recorded inhibition.
Ans. 8.1

* * *

Biological target: Tyrosine-protein kinase JAK3 (Homo sapiens) (UniProt P52333)
Sequence (P52333 whole entry): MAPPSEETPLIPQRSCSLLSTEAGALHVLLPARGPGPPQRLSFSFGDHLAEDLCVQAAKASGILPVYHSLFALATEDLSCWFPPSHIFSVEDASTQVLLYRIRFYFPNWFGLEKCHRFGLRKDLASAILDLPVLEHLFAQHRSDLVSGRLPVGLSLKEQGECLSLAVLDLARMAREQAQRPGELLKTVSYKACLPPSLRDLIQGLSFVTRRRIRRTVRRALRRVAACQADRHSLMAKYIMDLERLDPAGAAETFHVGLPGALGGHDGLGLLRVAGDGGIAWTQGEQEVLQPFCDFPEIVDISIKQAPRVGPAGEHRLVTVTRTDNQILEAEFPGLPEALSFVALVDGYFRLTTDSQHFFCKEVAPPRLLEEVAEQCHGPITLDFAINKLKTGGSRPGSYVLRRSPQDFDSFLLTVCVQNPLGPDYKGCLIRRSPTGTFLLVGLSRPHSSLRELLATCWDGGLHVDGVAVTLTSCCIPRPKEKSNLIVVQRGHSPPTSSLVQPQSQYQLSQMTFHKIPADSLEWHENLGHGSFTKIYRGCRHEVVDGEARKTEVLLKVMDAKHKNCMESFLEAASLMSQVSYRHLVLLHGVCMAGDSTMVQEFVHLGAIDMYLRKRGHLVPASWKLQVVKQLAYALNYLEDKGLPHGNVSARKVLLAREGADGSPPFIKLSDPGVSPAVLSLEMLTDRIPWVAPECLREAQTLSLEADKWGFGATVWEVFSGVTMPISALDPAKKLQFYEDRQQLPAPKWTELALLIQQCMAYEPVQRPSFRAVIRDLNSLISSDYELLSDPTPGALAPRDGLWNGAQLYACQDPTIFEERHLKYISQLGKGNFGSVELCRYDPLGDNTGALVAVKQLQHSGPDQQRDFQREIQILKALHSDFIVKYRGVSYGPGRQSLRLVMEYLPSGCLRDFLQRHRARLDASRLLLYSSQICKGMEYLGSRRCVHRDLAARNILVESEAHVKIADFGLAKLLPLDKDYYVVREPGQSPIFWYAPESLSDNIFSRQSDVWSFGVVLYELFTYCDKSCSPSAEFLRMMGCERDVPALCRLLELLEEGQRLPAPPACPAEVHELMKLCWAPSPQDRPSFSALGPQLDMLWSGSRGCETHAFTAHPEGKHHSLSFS
Conditions: at 1 µM
Description: GSK_PKIS: JAK3 mean inhibition at 1 uM [Nanosyn]
Reported inhibition by item:
Quick note: give the figure in %, leave out the unit.

Example entries and their recorded answers appear below.
1) CC1=C(C(=O)Nc2cc(Cl)c3[nH]ncc3c2)C(c2ccc(C(F)(F)F)cc2)CC(=O)N1 (stereo not given) = 42.3
2) Nc1nc(-c2cccc(Cl)c2)c(-c2ccc3ncccc3n2)s1 = -0.69
3) COc1cc2c(cc1Nc1nc(Nc3ccsc3C(N)=O)c3cc[nH]c3n1)N(C(=O)CN(C)C)CCC2(C)C = 1.42
4) COc1cc(Nc2nccc(Nc3ccc4c(C)n[nH]c4c3)n2)cc(OC)c1OC = 27.8

// next entry
Qu. Lab note: need inhibition with Tyrosine-protein kinase JAK3 (Homo sapiens) (UniProt P52333) for entry c1ccc(COc2ccc(Nc3ncnc4ccc(-c5ccco5)cc34)cc2)cc1 , please look it up.
Ans. -0.1

* * *

Reported inhibition by item:
Biological target: Protein kinase C alpha type (Homo sapiens) (UniProt P17252);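 further: each value is the mean percent inhibition of PKC-alpha kinase activity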
Settings: at 0.1 µM
For clarity, give the value followed by its unit.

Example entries and their recorded answers appear below.
1. c1ccc(-c2nc3n(c2-c2ccc4c(c2)OCO4)CCC3)nc1 = 0.9%
2. COc1cccc(-n2ncc3c(N/N=C/c4ccc(F)cc4)ncnc32)c1 = 0.47%

Qu. Given CCCN1CCC(c2ccc(Nc3nc(Nc4cc(F)ccc4C(N)=O)c4cc[nH]c4n3)c(OC)c2)CC1 , state its recorded inhibition.
Ans. 0.66%

* * *

Reported inhibition by item:
Target: Mitogen-activated protein kinase 1 (Homo sapiens) (UniProt P28482);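 further: values are mean inhibition, from the GSK PKIS collection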
Sequence (P28482 whole entry): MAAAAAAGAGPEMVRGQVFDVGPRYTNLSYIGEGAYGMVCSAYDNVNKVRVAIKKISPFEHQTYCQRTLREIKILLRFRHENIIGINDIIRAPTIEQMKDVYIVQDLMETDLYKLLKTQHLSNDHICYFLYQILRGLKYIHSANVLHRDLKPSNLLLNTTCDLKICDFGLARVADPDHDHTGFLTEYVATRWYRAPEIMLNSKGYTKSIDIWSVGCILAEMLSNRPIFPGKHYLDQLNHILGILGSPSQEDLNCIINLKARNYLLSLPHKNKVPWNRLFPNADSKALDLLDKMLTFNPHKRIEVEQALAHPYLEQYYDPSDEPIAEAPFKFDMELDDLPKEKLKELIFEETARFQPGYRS
Conditions: at 1 µM
Quick note: give the figure in %, leave out the unit.

1. Cc1cccc(Nc2ncc(-c3ccccc3)o2)c1 = 5.08
2. CCN(CC)S(=O)(=O)c1ccc(OC)c(Nc2ncc(-c3ccccc3)o2)c1 = -0.08
3. Nc1ncc(-c2cccc(S(N)(=O)=O)c2)c2scc(-c3ccc(F)c(Cl)c3)c12 = 7.98
4. Cc1ccc2c(-c3ccnc(Nc4ccccc4)n3)c(-c3ccc(F)cc3)nn2n1 = 10.5
5. CCn1c(-c2nonc2N)nc2cnc(Oc3cccc(NC(=O)c4ccc(N(C)C)cc4)c3)cc21 = 3.77

Qu. Given CN1CCC(n2cnc(-c3ccc(F)cc3)c2-c2ccnc(Nc3ccccc3)n2)CC1 , state its recorded inhibition.
Ans. 5.02

Qu. Also CS(=O)(=O)CCNCc1ccc(-c2ccc3ncnc(Nc4ccc(OCc5ccccc5)c(C(F)(F)F)c4)c3c2)o1 ?
Ans. 5.24

Qu. Also COC(=O)Nc1nc2ccc(S(=O)(=O)c3ccc(NC(=O)Nc4cc(C(F)(F)F)ccc4F)cc3)cc2[nH]1 ?
Ans. 2.17

Qu. Also FC(F)(F)c1cccc(-c2nn3ncccc3c2-c2ccnc(Nc3ccc4c(c3)OCCO4)n2)c1 ?
Ans. 4.01

* * *

Test system: Receptor-type tyrosine-protein kinase FLT3 (Homo sapiens), P36888 [D835Y]
Details: at 0.1 µM
measuredMetric: inhibition (%)
Quick note: give the figure in %, leave out the unit.

Example entries and their recorded answers appear below.
1) CNC(=O)c1cc(-c2ccc(F)cc2)cc(-c2ccc(S(=O)(=O)N3CCCC3)cc2)c1N = -1.38
2) CCn1c(-c2nonc2N)nc2ccccc21 = 3.23
3) COc1cc(N2CCN(C(C)C)CC2)ccc1Nc1nc(Nc2ccc(F)cc2C(N)=O)c2cc[nH]c2n1 = 2.42
4) CN(C)CCOc1ccc(-c2nc(-c3ccncc3)c(-c3ccc4c(c3)CC/C4=N\O)[nH]2)cc1 = 1.65
5) CCn1c(-c2nonc2N)nc2c(C#CC(C)(C)O)ncc(OC3CCNCC3)c21 = 1.56
6) Fc1ccc(-c2nn3ncccc3c2-c2ccnc(Nc3ccc4c(c3)OCCO4)n2)cc1 = -1.97

Qu. Given COc1cccc(-c2c[nH]c3c(N/N=C/c4ccncc4)ncnc23)c1 , state its recorded inhibition.
Ans. 16.4

Qu. Also CCc1nn2ncccc2c1-c1ccnc(NC2CC2)n1 ?
Ans. -7.04

Qu. Also O=C(O[C@H]1CN[C@H](C#Cc2cc3ncnc(Nc4ccc(Cc5ccccc5)cc4)c3s2)C1)N1CCOCC1 ?
Ans. 5.18

Qu. Also Cc1ccc2c(-c3ccnc(Nc4ccccc4)n3)c(-c3ccc(F)cc3)nn2n1 ?
Ans. 3.24

Qu. Also CC(C)(CO)CNC(=O)c1ccc2c(c1)/C(=N/Nc1ccc(S(N)(=O)=O)cc1)C(=O)N2 ?
Ans. 1.72

* * *

Biological target: Ephrin type-B receptor 3 (Homo sapiens);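 further: values are mean percent inhibition of EPHB3 from the GSK PKIS screening panel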
Conditions: at 1 µM
Reported inhibition by item:
Quick note: give the figure in %, leave out the unit.

1) CCCN1CCC(c2ccc(Nc3nc(Nc4cc(F)ccc4C(N)=O)c4cc[nH]c4n3)c(OC)c2)CC1 = 2.33
2) CNC(=O)c1cncc(/C=C/c2ccccc2Cl)c1 = 1.05
3) CNC(=O)c1cc(-c2ccc(F)cc2)cc(-c2ccc(S(=O)(=O)N3CCCC3)cc2)c1N = 3.7
4) CC(=O)NCc1cccc(C#Cc2cncnc2Nc2ccc(OCc3cccc(F)c3)c(Cl)c2)c1 = 2.99
5) c1ccc(COc2ccc(Nc3ncnc4ccc(-c5ccco5)cc34)cc2)cc1 = 3.5

Qu. Given Cc1ccc(O)cc1Nc1ccnc2cc(-c3ccccn3)ccc12 , state its recorded inhibition.
Ans. 53.3

* * *

Target: Fibroblast growth factor receptor 1 (Homo sapiens);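 further: values are the mean percent inhibition of FGFR1 across replicate measurements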
Conditions: at 1 µM
measuredMetric: inhibition (%)
Quick note: give the figure in %, leave out the unit.

Example entries and their recorded answers appear below.
1. COc1ccc2c(-c3ccnc(Nc4cccc(OC(F)(F)F)c4)n3)cnn2n1 = 0.82
2. [O-][S+]1CCN(Cc2ccc(-c3ccc4ncnc(Nc5ccc(OCc6cccc(F)c6)c(Cl)c5)c4c3)o2)CC1 = 9.17
3. COc1cc2ncn(-c3cc(OCc4ccccc4C(F)(F)F)c(C(=O)N(C)C)s3)c2cc1OC = 10.3
4. COc1ccc2[nH]c3c4[nH]c5ccc(OC)cc5c4c4c(c3c2c1)C(=O)NC4=O = 3.2
5. N#Cc1c(NC(=O)CN2CCOCC2)sc2c1CCCC2 = 3.5
6. Cc1cccc(Nc2ncc(-c3ccccc3)o2)c1 = 3.22
7. CCn1cc(-c2ccnc3[nH]ccc23)c(-c2cccc(NC(=O)Nc3ccc(OCc4ccccc4)cc3)c2)n1 = -2.55
8. CCN(CC)S(=O)(=O)c1ccc(OC)c(Nc2ncc(-c3ccccc3)o2)c1 = 23.7

// next entry
Qu. Lab note: need inhibition with Fibroblast growth factor receptor 1 (Homo sapiens) for entry CS(=O)(=O)CCNCc1coc(-c2ccc3ncnc(Nc4ccc(OCc5ccccc5)cc4)c3c2)c1 , please look it up.
Ans. 2.53
